- System: Key Grass and Sedge Weeds as well as Grass Crops
- measurementNotes: Post-Emergent Test II: postemergent herbicidal activity, visual rating after 14 d (Table 8)
- Type: in vivo
- assaySetup: post-emergence, 336 h, giant foxtail (Setaria faberi), 140 g ai/ha, read-out: Visual Growth Reduction (%) 14 Days After Application SETFA
measuredAttribute: pest or weed control at 140 g/ha

// below: answered molecules
# molecule, pest or weed control at 140 g/ha
measured = [
    ("COC(=O)c1nc(-c2ccc3c(c2)OC(F)(F)O3)c(Cl)c(N)c1Cl", "45 to 59%"),
    ("COC(=O)c1nc(-c2cccc3c2OCO3)c(F)c(N)c1Cl", "0 to 29%"),
    ("Nc1c(F)c(-c2ccc3c(c2F)OC(F)(F)O3)nc(C(=O)O)c1Cl", "95 to 100%"),
    ("COC(=O)c1nc(-c2ccc3c(c2)OC(F)(F)O3)c(F)c(N)c1OC", "0 to 29%"),
    ("COC(=O)c1nc(-c2ccc3c(c2C)OC(F)(F)O3)cc(N)c1Cl", "0 to 29%"),
]

Kindly note the recorded pest or weed control at 140 g/ha for `COC(=O)c1nc(-c2cc3c(cc2F)OC(F)(F)O3)nc(N)c1Cl` , which is 75 to 84%

Given item `COC(=O)c1nc(-c2cc3c(cc2Cl)OC(F)(F)O3)c(F)c(N)c1Cl` , the value recorded as its pest or weed control at 140 g/ha is 0 to 29%

# molecule COC(=O)c1nc(-c2ccc3c(c2)OC(C)O3)c(F)c(N)c1Cl (centres unmarked) ; its pest or weed control at 140 g/ha = 85 to 94%
